System: hMSCs
Test: Alizarin red staining for calcium phosphate deposits (ECM mineralization, bone cell maturation)
Format: cell-based, human
Details: OS treatment started three days after siRNA transfection and continued for 9 days (3+9OS), vs siCon
ENDPOINT: intensity of alizarin red staining

Examples from the recorded data:
SUBSTANCE: siGBDR1: siRNA CCCGAAAACAUUGCUAGCA targeting putative glialblastoma cell differentiation-related (listed as RNA, chemistry not given here)
intensity of alizarin red staining: dramatically enhanced
//
SUBSTANCE: siKCNT1: siRNA UGCGAGCCAAGAUGGACAA targeting potassium channel, subfamily T, member 1 (listed as RNA, chemistry not given here)
intensity of alizarin red staining: dramatically enhanced
//
SUBSTANCE: siBIRC4: siRNA UGUGCUACACAGUCAUUAC targeting baculoviral IAP repeat-containing 4 (listed as RNA, chemistry not given here)
intensity of alizarin red staining: weak enhancement
//
SUBSTANCE: siADCY8: siRNA GGAGAUCAACAAGCAUUCA targeting adenylate cyclase 8 (listed as RNA, chemistry not given here)
intensity of alizarin red staining: weak enhancement

Now consider the entry below.
So what does the record say about intensity of alizarin red staining for siGNAS: siRNA UCGAAGAUUGAGGACUACU targeting GNAS complex locus (listed as RNA, chemistry not given here) ?
dramatically enhanced
